Biological target: SARS-CoV-2 Lambda (C.37) RBD (SARS-CoV-2 Lambda (C.37), strain)
MEASUREMENT_LABEL: binding result

Could you tell me which binding result is on file for YB12-187 (antibody, V domains shown) VH: EVQLVESGGGLVKPGGSLRLSCAASGFIFSTYSMNWVRQAPGKGLEWVSSISSFSTYIYYADSVKGRFTISRDNAKNSLYLQMNSLRAEDTAVYYCASGQMYSGSYPSGDYFDYWGQGTLVTVSS VL: LSVLTQPPSVSGAPGQRVTISCTGSSSNIGADYDVHWYQQLPGTAPKLLIYGNTNRPSGVPDRFSGSKSGTSASLAITGLQAEDEAHYYCQSYDTSLSGVVFGGGTKLTVL ?
binds

Given YB13-291 (antibody, V domains shown) V domain 1: QITLKESGPTLVKPTQTLTLTCTFSGFSLNTAGVAVGWIRQPPGKAREWLALIYWDDDQRYSPSLESRLTITKDTSKNLVVLTMTNMDPVDTATYYCAHPRYFSDNSAYYWIWGQGTMVTVSS V domain 2: SYDLTQPPSVSVSPGQTATISCSGDALPKQYVYWYQQKPGQAPVLVIYKDSERPSGIPERFSGSNSGTTVTLTISGVQAEDEAEYYCQSADSSGFYVFGSGTQVTVL , state its recorded binding result.
binds

Any idea what its binding result is? The binder is YB13-209 (antibody, V domains shown) VH: EVQLVESGGGLVKPGGSLKLSCAASGFSFVNAWMSWVRQAPGKGLEWVGRIKDKIDGGTTDYAAPVKGRFSISRDDSKNMLYLQMTSLKTEDTAVYYCTTGYNWHYGIEYWGQGTLVTVSS VL: DIQMTQSPSSLSASVGDRVTVTCRASQSINSYLNWYQQKPGKAPKLLIYAASSLQSGVPSRFSGSGSGTDFTLTISSLQAEDFATYYCQQSYSTPDTFGQGTKLEIK
binds
